Reference source: paper PMC8762078

- TEST_SYSTEM: GABARAPL1 (human, UniProt Q9H0R8 1-117)
- Sequence (Q9H0R8 whole entry): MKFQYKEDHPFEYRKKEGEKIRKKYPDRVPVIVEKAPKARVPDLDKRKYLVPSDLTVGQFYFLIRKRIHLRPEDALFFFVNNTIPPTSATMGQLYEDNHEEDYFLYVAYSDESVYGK
- ASSAY_METHOD_TEXT: ITC; MicroCal VP-ITC, 30 °C; protein 10 μM in the cell, 10 μl injections of peptide (100-150 μM); 25 mM potassium phosphate, 150 mM NaCl, pH 7.0; no reducing agent; one site binding model; two independent measurements
- STATED_CONDITIONS: both partners purified
MEASURED_QUANTITY: Kd (µM)
# number only, unit µM dropped from output

SGGDDDWTHLSS (also called p62 AIM; source: synthetic peptide; bought: Genosphere Biotechnologies and Peptide Synthetics) [p62 WT-AIM peptide]
3.23

Now for a further binder.
Lookup: I would be grateful if you could share the reported Kd for SGGDDDWTHVSS (also called L341V-mutant peptide; mutant AIM; source: synthetic peptide; bought: Genosphere Biotechnologies and Peptide Synthetics) [p62 L341V-AIM peptide] .
Found: 5.78
